# Test system: KB
# Test details: Cytotoxicity against human KB cells
# Assay type: functional, cell-based
Quantity measured: IC50

Exam item: Record request: IC50 value, item CN1Cn2c3c(c4cc(Br)ccc42)CCN(C)[C@@H]3[C@@H]1Cc1ccccc1
Marked response: > 10 µg/mL

Exam item: Same again, this time with CN1Cn2c3c(c4ccc(Br)cc42)CCN(C)[C@@H]3[C@@H]1Cc1ccccc1
Marked response: > 10 µg/mL

Exam item: What do you get for CC(=O)c1nccc2c1[nH]c1ccc(O)c(Br)c12 ?
Marked response: > 10 µg/mL

Exam item: Repeat with CN[C@H](C[S+](C)[O-])c1nccc2c1[nH]c1ccc(O)c(Br)c12 (some centres undefined)
Marked response: 0.063 µg/mL
